Target: Pyroglutamylated RF-amide peptide receptor (Homo sapiens, UniProt Q96P65)
Sequence (Q96P65 whole entry): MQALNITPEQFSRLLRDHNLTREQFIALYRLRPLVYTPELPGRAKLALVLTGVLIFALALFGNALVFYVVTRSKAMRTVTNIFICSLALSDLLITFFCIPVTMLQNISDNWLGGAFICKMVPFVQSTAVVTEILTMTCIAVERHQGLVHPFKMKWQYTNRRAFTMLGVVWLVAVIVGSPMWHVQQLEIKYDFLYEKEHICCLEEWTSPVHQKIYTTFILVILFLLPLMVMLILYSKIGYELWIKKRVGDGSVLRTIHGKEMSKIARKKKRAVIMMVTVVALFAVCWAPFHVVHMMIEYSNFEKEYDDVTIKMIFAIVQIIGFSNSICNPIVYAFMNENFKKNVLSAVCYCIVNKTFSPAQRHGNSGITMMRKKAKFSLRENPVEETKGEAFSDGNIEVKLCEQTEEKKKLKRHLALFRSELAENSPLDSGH
Test: Antagonist activity at human GPR103 receptor assessed as inhibition of inositol-1-phosphate production by cell-based assay
Assay type: functional
pIC50: −log10 of the molar value.
observation-type: pIC50

Example entries and their recorded answers appear below.
[
  {
    "test-smiles": "COc1ccc(Cl)cc1NS(=O)(=O)c1ccc(OC)c2c1CC[C@@H](N(C)C)C2",
    "assayed-target": "Pyroglutamylated RF-amide peptide receptor (Homo sapiens, UniProt Q96P65)",
    "measured": 7.10
  },
  {
    "test-smiles": "COc1ccc(NC(=N)c2nccs2)cc1CSC1CCCC1",
    "assayed-target": "Pyroglutamylated RF-amide peptide receptor (Homo sapiens, UniProt Q96P65)",
    "measured": 5.60
  },
  {
    "test-smiles": "COc1ccc(NC(=O)c2cccs2)cc1CSC1CCCC1",
    "assayed-target": "Pyroglutamylated RF-amide peptide receptor (Homo sapiens, UniProt Q96P65)",
    "measured": 5.10
  }
]

[1] COc1ccc(NC(=N)c2ccccc2)cc1CCC1CCCC1
[2] COc1ccc(Nc2ccccn2)cc1CSC1CCCC1
[3] COc1ccc(NC(=N)c2cccs2)cc1COC1CCCC1
[4] Cc1ccc(NC(=N)c2cccs2)cc1CSC1CCCC1
[5] N=C(Nc1ccc(F)c(CSC2CCCC2)c1)c1cccs1
Sort entries by pIC50 from minimum to maximum value. Note for the reader: the ranking is given by listing the labels in the order requested. 2, 3, 4, 5, 1
